measurement protocol: inhibitors of larval lipid processing in zebrafish, primary screen, whole organism, PED6 fluorescence, gall bladder and intestine (AID 686);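 further: larvae 5 to 7 days old with five fish per well; signal comes from phospholipase A2 cleavage of quenched PED6 carried via bile; overnight exposure to compound and PED6 before scoring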
condition set: Zebrafish larvae PED6 lipid processing, fluorescence scoring
Activity calls are given as the source filed them.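 How the source made its calls: active means a full or partial loss of lipid-probe fluorescence in the fish gall bladder, intestine or both, judged by eye; inactive means no fluorescence loss, or compound toxic to the fish.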 Residues, ends and D or L forms follow the SMILES beside them.
measured quantity: outcome

• CCCCOCCCn1c(N)c(C(=O)OC(C)COC)c2nc3ccccc3nc21 (stereo unspecified) = inactive
• O=c1[nH]c(=O)n(Cc2ccco2)c(O)c1C=NCc1ccc2c(c1)OCO2 = inactive
• CC[C@@H](CO)NC(=O)[C@@H]1C=C2c3cccc4c3c(cn4C)C[C@H]2N(C)C1 = inactive
• CCOC(=O)C1=C(N)OC(C)=C(C(=O)OCCOC)C12C(=O)Nc1ccccc12 (stereo unspecified) = inactive
• CCn1c(O)c(C(=O)CC2NCCc3ccccc32)c(=O)n(CC)c1=S (stereo unspecified) = inactive
• CC1(C)NCCN2C(=O)CSC21 (stereo unspecified) = inactive
• C[N+]1(C)[C@@H]2CC(OC(=O)[C@H](CO)c3ccccc3)C[C@H]1[C@@H]1O[C@@H]12 (stereo partly specified) = inactive
• CC(=O)OC1(c2ccc(C)cc2)CN2CCC1c1ccccc12 (stereo unspecified) = inactive
• O=c1[nH]c(=O)n(Cc2ccco2)c(O)c1C=NCCN1CCOCC1 = inactive
• CCCCCCn1c(O)c(C=NC2CCN(Cc3ccccc3)CC2)c(=O)[nH]c1=O = inactive
• C=CCN1C(=O)C2(C(C(=O)OCC)=C(N)Oc3c2c(=O)oc2ccccc32)c2ccccc21 (stereo unspecified) = inactive
• COc1ccc(C2SCC(=O)Nc3c2c(=O)[nH]n3C2CCCCC2)cc1 (stereo unspecified) = inactive
• O=C(CN1CCN(CCO)CC1)Nc1ccc(Cl)cc1C(=O)c1ccccc1 = inactive
• CC(C)C[C@H](NC(=O)[C@@H]1CCCN1C(=O)[C@@H](N)Cc1ccc(O)cc1)C(=O)NCC(N)=O (H-YPLG-NH2) = inactive
• CCCCSP1(=S)NCCCO1 (stereo unspecified) = inactive
• CC(=O)[C@@]1(O)CC[C@H]2[C@@H]3CC=C4C[C@@H](O)CC[C@]4(C)[C@H]3CC[C@@]21C = inactive
• CN1CCc2nc(SCC(=O)OC(C)(C)C)c(C#N)cc2C1 = inactive
• CN(C)[C@@H]1C(=O)C(C(N)=O)=C(O)[C@@]2(O)C(=O)C3=C(O)c4c(O)ccc(Cl)c4[C@@](C)(O)C3C[C@@H]12 (stereo partly specified) = inactive
• CC(=O)CC(C)(C)n1c[n+](C)nn1 = inactive
• CN1CCc2c(c(N3CCCCC3)nc3n[nH]c(N)c23)C1 = inactive
• O=c1[nH]c2ccccc2n1C1CCN(CCCC(c2ccc(F)cc2)c2ccc(F)cc2)CC1 = inactive

* * *

measurement protocol: loss of swimming-algae plug formation – whole organism, Chlamydomonas reinhardtii, WT vs cilia-less mutant, absorbance, 96-well, primary screen (AID 463189);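 further: 0% = wild type cc124 cells in DMSO and 100% = ciliumless bld1 mutant cells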
condition set: Chlamydomonas reinhardtii gravitaxis, OD600 absorbance, 2 days; at 10 µM
Calls of active or inactive are those of the source.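 How the source made its calls: active means inhibition at or above 50% relative to wild type and mutant plate controls; inactive means inhibition below 50%.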
Labels: y for active, n for inactive

- CCn1cnc2c(Nc3cccc(Cl)c3)nc(N[C@@H]3CCCC[C@@H]3N)nc21: n
- CCOC(=O)c1ncn2c1[C@@H]1CCCN1C(=O)c1cc(OC)ccc1-2: n
- NC(=O)c1cc(N2CC2)c([N+](=O)[O-])cc1[N+](=O)[O-]: n
- Cc1cccc(C)c1NC1=NCCCS1: n
- c1ccc2cc(CC3=NCCN3)ccc2c1: n
- C=CCN1CCC23c4c5ccc(O)c4O[C@H]2C(=O)CC[C@@]3(O)C1C5 (stereo partly drawn): n
- S=C=Nc1cccc(C2(N3CCCCC3)CCCCC2)c1: n
- Cc1c(C(=O)c2cccc3ccccc23)c2cccc3c2n1[C@H](CN1CCOCC1)CO3: n
- Clc1ccc(COC(Cn2ccnc2)c2ccc(Cl)cc2Cl)c(Cl)c1 (stereo not drawn): n
- CC(=C1C(=O)c2ccccc2C1=O)N1CCN(CCN=Cc2c(O)n(C)c(=O)n(C)c2=O)CC1: n
- Cc1c(N=Cc2c(O)n(CCc3ccc(F)cc3)c(=O)[nH]c2=O)c(=O)n(-c2ccccc2)n1C: n
- CNCCc1ccc(O)c(O)c1: n
- [N-]=[N+]=CC(=O)OC[C@H](N)C(=O)O: n
- Cc1[nH]c2ccc(O)cc2c1CCN: n
- C#CCOC(=O)C1=CCCN(C)C1: n
- C[C@@H]1O[C@@H](O[C@H]2C[C@@H](O)[C@]3(CO)[C@@H]4C(CC[C@]3(O)C2)[C@@]2(O)CC[C@H](C3COC(=O)C3)[C@@]2(C)C[C@H]4O)[C@H](O)[C@H](O)[C@H]1O (stereo partly drawn): n
- COC(=O)C1=CCCN(C)C1: n
- COc1cccc(-n2c(O)c(C=NCCN3CCOCC3)c(=O)[nH]c2=O)c1: n
- CP(=O)(O)CCCN: n
- OCc1cnc[nH]1: n
- CC(=NCCO)c1c(O)n(C)c(=O)n(C)c1=O: n
- NC(CCP(=O)(O)O)C(=O)O (stereo not drawn): n
- C[C@]12Cc3cn4c(nc3C=C1CCC1C2CC[C@@]2(C)[C@H]1CC[C@@]2(O)C#N)nc1ccccc14 (stereo partly drawn): y
- CN(C(=O)Cc1ccc(Cl)c(Cl)c1)C(CN1CCCC1)c1cccc(OCC(=O)O)c1 (stereo not drawn): n
- C[N+](C)(C)CC(=O)O: n
- Cc1ccc2c(c1)[C@@H]1CN(C)CC[C@@H]1N2C(=O)Nc1cccc(C(F)(F)F)c1: n
- CC(=O)[C@@]1(O)CC[C@H]2[C@@H]3CC=C4C[C@@H](O)CC[C@]4(C)[C@H]3CC[C@@]21C: n
- C[N+]1(C)CCC(OC(=O)C(c2ccccc2)c2ccccc2)CC1: n
- NCCc1ccc(O)cc1: n
- NCCc1c[nH]c2ccc(O)cc12: n
- CN1C2CCC1CC(OC(c1ccccc1)c1ccccc1N)C2 (stereo not drawn): n
- CC(N)Cc1c[nH]c2ccc(O)cc12 (stereo not drawn): n
- N[C@@H](Cn1ccc(=O)[nH]c1=O)C(=O)O: n
- C=CCN1CC[C@]23CCCCC2[C@H]1Cc1ccc(O)cc13 (stereo partly drawn): n
- c1ccc2c(c1)[I+]c1ccccc1-2: y
- C#CCN[C@H](C)Cc1ccccc1: n
- C[Se]C[C@H](N)C(=O)O: n
- NC(=O)COc1c(F)cc(SCCNS(=O)(=O)c2ccccc2)cc1F: n
- O=P1(N(CCCl)CCCl)NCCCO1 (stereo not drawn): n
- CN(C)CCOC(=O)c1cn(Cc2ccccc2)c2ccccc12: n
- COc1cc(C[C@@H](C)N)c(OC)cc1I: n
- CC(C)Cc1[nH]c(=O)c(C#N)c2c1CCC2: n
- C=CCN1C[C@@H](C)N([C@H](c2ccc(C(=O)N(CC)CC)cc2)c2cccc(OC)c2)C[C@@H]1C: n
- COC(=O)N1CCN(C(=O)Cc2ccc(Cl)c(Cl)c2)C(CN2CCCC2)C1 (stereo not drawn): n
- CCN(CC)CCN=Cc1c(O)n(CCc2ccccc2)c(=O)[nH]c1=O: n
- COc1ccc(C2SCC(=O)Nc3c2c(=O)[nH]n3C2CCCCCC2)cc1 (stereo not drawn): n
- N[C@H](CCCCCP(=O)(O)O)C(=O)O: n
- NC1CC1c1ccccc1 (stereo not drawn): n

* * *

Overview of reported inhibition across a group of compounds:
measurement protocol: endothelial E-selectin expression blockers – imaging, HUVEC, immunofluorescence, MLSMR starter and 10KST1 sets, primary screen (AID 487);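 further: signal is fraction of cell area covered by stained E-selectin grains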
condition set: HUVEC TNFalpha-induced E-selectin immunofluorescence imaging, at 2 µM; hits give high values
measured quantity: inhibition (%)

* CCn1c(C)c(C(=O)O)c2cc(OC)ccc21 | 11.4
* COc1cc(/C=N/n2cnnc2)ccc1OC(=O)N(C)C | -3.5
* CC(=NCc1cccnc1)c1c(O)n(Cc2ccccc2)c(=O)[nH]c1=O | -174
* CCCCn1c(O)c(C=NCCN2CCCCC2)c(=O)[nH]c1=O | 17.7
* CCOc1cccc(N2C(=O)CC(=O)NC2=O)c1 | -63.8
* CC(C)OC(=O)c1c(N)n(CC2CCCO2)c2nc3ccccc3nc12 (stereo unspecified) | -26.3
* CC(C)(C)OC(=O)c1c(N)n(Cc2ccco2)c2nc3ccccc3nc12 | -57.4
* CC(C)C(=O)N1CCN(CCN=Cc2c(O)n(C)c(=O)n(C)c2=O)CC1 | -78.2
* C[C@H]1CCC/C=C/C2C[C@H](O)CC2[C@H](O)/C=C/C(=O)O1 (stereo partly specified) | 94.9
* CC(=O)OC1(Cc2ccccc2)CN2CCC1c1ccccc12 (stereo unspecified) | -118
* COC(=O)c1ccccc1-n1c(C)nc2ccccc2c1=O | -140
